The following variants are listed with their measured folding stability dG values.
B1: EHEE_rd2_0191 (parent)
chain: TTEYTFTDDEEARRAIEELKKRGLTFRYEKHGTTWRVRVD

# Variants of: B1
# measurement_protocol: folding stability dG (cDNA display proteolysis); higher = more stable
# cond: PBS, room temperature
Please respond with the number in kcal/mol and leave the unit unwritten.

Some variants with recorded folding stability dG:
| ordered_residues | property_name | measured |
| --- | --- | --- |
| TTEYTFTDDEEARRAIEELKKRGLTIRYEKHGTTWRVRVD | folding stability dG | 2.04 |
| TTEYTFNDDEEARRAIEELKKRGLTFRYEKHGTTWRVRVD | folding stability dG | 1.97 |
| TTEYMFTDDEEARRAIEELKKRGLTFRYEKHGTTWRVRVD | folding stability dG | 1.95 |

# context switch: different variant, same folding stability dG
Supply recorded folding stability dG for TTEYTFTDDEEARRAIEELKKRGLTFMYEKHGTTWRVRVD here.
2.03
